- target.or.system: Kdn(a2-3)Gal(b1-3)GlcNAc
- assay: glycan array binding signal (z-score within array); higher = stronger binding
- details: glycan notation: IUPAC condensed, linker removed
This excerpt belongs to a sample that is enriched for the strongest signals.
property: glycan array binding signal (z-score)
The answer should be a number; do not append a unit.

# input binder: CFEM-CGl (Candida glabrata), Q6FRS0 (protein) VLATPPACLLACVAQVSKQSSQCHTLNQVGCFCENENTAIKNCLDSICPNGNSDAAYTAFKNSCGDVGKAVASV ; wanted: its glycan array binding signal (z-score)
-0.288
